Just for reference, patent US9315458B2 is where these values come from.

# target_or_system: human M1 receptor (hCHRM1) (Homo sapiens, UniProt P11229)
# Construct: expressed in transfected cells
# Sequence (P11229 1-460): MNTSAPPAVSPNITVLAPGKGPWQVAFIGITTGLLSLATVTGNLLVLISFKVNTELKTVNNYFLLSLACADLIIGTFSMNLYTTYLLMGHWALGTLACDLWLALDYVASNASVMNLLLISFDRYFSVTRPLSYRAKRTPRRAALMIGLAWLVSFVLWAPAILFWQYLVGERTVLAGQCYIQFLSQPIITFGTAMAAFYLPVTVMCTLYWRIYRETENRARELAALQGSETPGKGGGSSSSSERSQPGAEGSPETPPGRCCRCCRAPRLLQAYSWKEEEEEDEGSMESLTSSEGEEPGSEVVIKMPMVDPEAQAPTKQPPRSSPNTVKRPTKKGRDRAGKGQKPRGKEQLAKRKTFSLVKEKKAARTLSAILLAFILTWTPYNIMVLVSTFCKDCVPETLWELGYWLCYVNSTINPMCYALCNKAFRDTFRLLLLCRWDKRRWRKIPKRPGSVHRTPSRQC
# test_method_notes: Measurement of M1 receptor positive allosteric modulator (M1PAM) activity, calcium fluorescence (FLIPRtetra) with acetylcholine at EC20
# Type: cell-based
# experimental_setup: 10 μM test compound; 100% = acetylcholine 1 μM, 0% = DMSO; acetylcholine at EC20
# Experimental: The activity of a test compound in the presence of acetylcholine at EC20 concentration (final concentration 0.6-0.8 nM), which affords an action corresponding to about 20% of the maximum activity, was measured as PAM activity. […] A test compound prepared by diluting with assay buffer B (HBSS (Invitrogen), 20 mM HEPES (Invitrogen), 0.1% BSA) containing 2.4-3.2 nM acetylcholine was added at 10 μL/well, and the fluorescence was measured by FLIPRtetra (Molecular Devices) for 1 min every 1 second. […]
value_type: activity (%) at 10 μM

| compound | value_type | units_of_measure | val |
| --- | --- | --- | --- |
| CCc1cc2c(cc1Cc1ccc(-n3cccn3)cc1)C(=O)N(CC(C)(C)O)C2 [Example 129] | activity (%) at 10 μM | % | 100 |
| Cc1c(Cc2ccc(-c3cnn(C)c3)cc2)cc2c(c1C)CN([C@H]1CCCC[C@@H]1O)C2=O (racemic) [Example 89] | activity (%) at 10 μM | % | 94 |
| Cc1cc2c(cc1Cc1ccc(-c3cnn(C)c3)cc1)C(=O)N(CC1CCCO1)C2 (stereo not shown) [Example 68] | activity (%) at 10 μM | % | 95 |
| Cc1cc2c(cc1Cc1ccc(-c3cn(C)nn3)cc1)C(=O)N([C@H]1CCCC[C@@H]1O)C2 (racemic) [Example 47] | activity (%) at 10 μM | % | 99 |
| Cn1cc(-c2ccc(Cc3cc4c(cc3C3CC3)CN([C@H]3CCC[C@@H]3O)C4=O)cc2)nn1 (racemic) [Example 64] | activity (%) at 10 μM | % | 104 |
| Cn1cc(-c2ccc(Cc3cc4c(cc3C3CC3)CN(CC3CCCO3)C4=O)cc2)nn1 (stereo not shown) [Example 61] | activity (%) at 10 μM | % | 97 |
| Cc1c(Cc2ccc(-c3cnn(C)c3)cc2)cc2c(c1C)CN([C@H]1CCC[C@@H]1O)C2=O (racemic) [Example 69] | activity (%) at 10 μM | % | 95 |
| Cc1cc2c(cc1Cc1ccc(-n3cccn3)cc1)C(=O)N(c1c(F)cccc1C#N)C2 [Example 7] | activity (%) at 10 μM | % | 107 |
| Cc1c(Cc2ccc(-n3cccn3)cc2)cc2c(c1F)CN(CC(C)(C)O)C2=O [Example 127] | activity (%) at 10 μM | % | 104 |
| Cc1c(Cc2ccc(C#N)cc2F)cc2c(c1C)CN([C@H]1COCC[C@@H]1O)C2=O [Example 124] | activity (%) at 10 μM | % | 86 |
| Cc1cc2c(cc1Cc1ccc(-c3cn(C)nn3)cc1F)C(=O)N([C@H]1CCC[C@@H]1O)C2 (racemic) [Example 53] | activity (%) at 10 μM | % | 103 |
| COc1c(Cc2ccc(-n3cccn3)cc2)cc2c(c1Cl)CN([C@H]1CCC[C@@H]1O)C2=O (racemic) [Example 92] | activity (%) at 10 μM | % | 91 |
| Cc1nn(C)cc1-c1ccc(Cc2cc3c(c(C)c2C)CN([C@H]2CCCC[C@@H]2O)C3=O)c(F)c1 (racemic) [Example 94] | activity (%) at 10 μM | % | 92 |
| Cc1c(Cc2ccc(C#N)cc2F)cc2c(c1C)CN([C@H]1CCC[C@@H]1O)C2=O [Example 125] | activity (%) at 10 μM | % | 93 |
| Cc1c(Cc2ccc(-n3cccn3)cc2)cc2c(c1Cl)CN(CC(C)(C)O)C2=O [Example 132] | activity (%) at 10 μM | % | 87 |
| Cc1cc2c(cc1Cc1ccc(-n3cccn3)cc1)C(=O)N(C(C)C(C)(C)O)C2 (stereo not shown) [Example 133] | activity (%) at 10 μM | % | 87 |

----------
# target_or_system: human M1 receptor (hCHRM1) (Homo sapiens, UniProt P11229)
# Construct: expressed in transfected cells
# test_method_notes: Measurement of M1 receptor positive allosteric modulator (M1PAM) activity, calcium fluorescence (FLIPRtetra) with acetylcholine at EC20
# Type: cell-based
# experimental_setup: 10 μM test compound; 100% = acetylcholine 1 μM, 0% = DMSO; acetylcholine at EC20
# Description: The activity of a test compound in the presence of acetylcholine at EC20 concentration (final concentration 0.6-0.8 nM), which affords an action corresponding to about 20% of the maximum activity, was measured as PAM activity. […] A test compound prepared by diluting with assay buffer B (HBSS (Invitrogen), 20 mM HEPES (Invitrogen), 0.1% BSA) containing 2.4-3.2 nM acetylcholine was added at 10 μL/well, and the fluorescence was measured by FLIPRtetra (Molecular Devices) for 1 min every 1 second. […]

| compound | target_or_system | activity (%) at 10 μM |
| --- | --- | --- |
| CNC(=O)c1ccc(Cc2cc3c(c(C)c2C)CN([C@H]2CCC[C@@H]2O)C3=O)cc1F | human M1 receptor (hCHRM1) (Homo sapiens, UniProt P11229) | 90 |
| Cn1cc(-c2ccc(Cc3cc4c(cc3Cl)CN(CC3CCCO3)C4=O)cc2)nn1 (stereo not shown) | human M1 receptor (hCHRM1) (Homo sapiens, UniProt P11229) | 94 |
| Cc1c(Cc2ccc(C#N)cc2)cc2c(c1C)CN([C@H]1COCC[C@@H]1O)C2=O | human M1 receptor (hCHRM1) (Homo sapiens, UniProt P11229) | 80 |
| Cc1c(Cc2ccc(-c3ccn(C)n3)cc2)cc2c(c1C)CN(CC(C)(C)O)C2=O | human M1 receptor (hCHRM1) (Homo sapiens, UniProt P11229) | 96 |

----------
# target_or_system: human M1 receptor (hCHRM1) (Homo sapiens)
# Construct: expressed in transfected cells
# Sequence (P11229 1-460): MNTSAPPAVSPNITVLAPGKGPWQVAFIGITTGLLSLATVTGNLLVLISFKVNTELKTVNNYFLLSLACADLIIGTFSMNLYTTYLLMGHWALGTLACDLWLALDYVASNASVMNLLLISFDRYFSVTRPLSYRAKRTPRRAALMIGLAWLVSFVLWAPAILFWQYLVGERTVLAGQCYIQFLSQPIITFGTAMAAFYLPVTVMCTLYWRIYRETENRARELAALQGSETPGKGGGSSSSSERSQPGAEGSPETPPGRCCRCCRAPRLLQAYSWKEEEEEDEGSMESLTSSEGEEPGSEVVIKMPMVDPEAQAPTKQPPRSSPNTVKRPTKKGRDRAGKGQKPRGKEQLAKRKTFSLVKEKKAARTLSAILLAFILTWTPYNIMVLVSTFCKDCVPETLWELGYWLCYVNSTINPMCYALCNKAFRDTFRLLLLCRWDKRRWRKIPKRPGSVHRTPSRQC
# test_method_notes: Measurement of M1 receptor positive allosteric modulator (M1PAM) activity, calcium fluorescence (FLIPRtetra) with acetylcholine at EC20
# Type: cell-based
# experimental_setup: inflection point of concentration-dependent curve; CHO-K1 cells expressing hCHRM1; acetylcholine at EC20 (final 0.6-0.8 nM); read-out: IP value
Let's look at some compounds and their measured EC50.
value_type: EC50 (nM)

| compound | value_type | units_of_measure | val |
| --- | --- | --- | --- |
| Cc1cc2c(cc1Cc1ccc(-n3cccn3)cc1)C(=O)N(CC(C)(C)O)C2 | EC50 | nM | 54 |
| Cc1cc2c(cc1Cc1ccc(-n3cccn3)cc1)C(=O)N([C@H]1COCC[C@@H]1O)C2 | EC50 | nM | 6.2 |
| CCc1cc2c(cc1Cc1ccc(-n3cccn3)cc1)C(=O)N(CC1CCCO1)C2 (stereo not shown) | EC50 | nM | 95 |
| Cc1c(Cc2ccc(-c3ccn(C)n3)cc2)cc2c(c1C)CN(CC(C)(C)O)C2=O | EC50 | nM | 15 |
